# test-parameters: in ethanol, 288.15 K
observed-property: solubility (mole fraction)
No unit in the answer, only the number.

Exercise: Indicate its recorded solubility (mole fraction); the molecule in question is `CC(C)(C)OC(=O)N[C@@H](CCCN=C(N)N[N+](=O)[O-])C(=O)O`
Solution: 0.0188

---

# test-parameters: in n-pentanol, 303.15 K
observed-property: solubility (mole fraction)
No unit in the answer, only the number.

Exercise: Indicate its recorded solubility (mole fraction); the compound in question is `CC(C)(C)OC(=O)N[C@@H](CCCN=C(N)N[N+](=O)[O-])C(=O)O`
Solution: 0.00595

---

# test-parameters: in n-propanol, 293.15 K
observed-property: solubility (mole fraction)
No unit in the answer, only the number.

Exercise: Indicate its recorded solubility (mole fraction); the molecule in question is `CC(C)(C)OC(=O)N[C@@H](CCCN=C(N)N[N+](=O)[O-])C(=O)O`
Solution: 0.00919

---

# test-parameters: in water, 293.15 K
observed-property: solubility (mole fraction)
No unit in the answer, only the number.

Exercise: Indicate its recorded solubility (mole fraction); the molecule in question is `CC(C)(C)OC(=O)N[C@@H](CCCN=C(N)N[N+](=O)[O-])C(=O)O`
Solution: 0.000356

---

# test-parameters: in DMF, 293.15 K
observed-property: solubility (mole fraction)
No unit in the answer, only the number.

Exercise: Indicate its recorded solubility (mole fraction); the molecule in question is `CC(C)(C)OC(=O)N[C@@H](CCCN=C(N)N[N+](=O)[O-])C(=O)O`
Solution: 0.211

---

# test-parameters: in ethyl acetate, 313.15 K
observed-property: solubility (mole fraction)
No unit in the answer, only the number.

Exercise: Indicate its recorded solubility (mole fraction); the molecule in question is `CC(C)(C)OC(=O)N[C@@H](CCCN=C(N)N[N+](=O)[O-])C(=O)O`
Solution: 0.00147

---

# test-parameters: in n-propanol, 308.15 K
observed-property: solubility (mole fraction)

Exercise: Indicate its recorded solubility (mole fraction); the compound in question is `CC(C)(C)OC(=O)N[C@@H](CCCN=C(N)N[N+](=O)[O-])C(=O)O`
Solution: 0.0161

---

# test-parameters: in DMF, 318.15 K
observed-property: solubility (mole fraction)
No unit in the answer, only the number.

Exercise: Indicate its recorded solubility (mole fraction); the compound in question is `CC(C)(C)OC(=O)N[C@@H](CCCN=C(N)N[N+](=O)[O-])C(=O)O`
Solution: 0.505

---

# test-parameters: in n-pentanol, 308.15 K
observed-property: solubility (mole fraction)
No unit in the answer, only the number.

Exercise: Indicate its recorded solubility (mole fraction); the compound in question is `CC(C)(C)OC(=O)N[C@@H](CCCN=C(N)N[N+](=O)[O-])C(=O)O`
Solution: 0.00735

---

# test-parameters: in ethanol, 313.15 K
observed-property: solubility (mole fraction)
No unit in the answer, only the number.

Exercise: Indicate its recorded solubility (mole fraction); the compound in question is `CC(C)(C)OC(=O)N[C@@H](CCCN=C(N)N[N+](=O)[O-])C(=O)O`
Solution: 0.0469

---

# test-parameters: in isopropanol, 323.15 K
observed-property: solubility (mole fraction)
No unit in the answer, only the number.

Exercise: Indicate its recorded solubility (mole fraction); the molecule in question is `CC(C)(C)OC(=O)N[C@@H](CCCN=C(N)N[N+](=O)[O-])C(=O)O`
Solution: 0.0267

The reported measurements were obtained from BigSolDB 2.1.
